Experiment: Hepatocyte stability, human
Conditions: % parent remaining at 2 hour
Measured Endpoint: hepatocytes human (% remaining)
Expressed in % remaining, but write only the number.

Consider the reported hepatocytes human for these compounds:
Q: Sample CCCN1[C@H](CO)[C@H](c2ccccc2)[C@@H]1CN [26b] — what was its hepatocytes human?
A: 103

Q: Sample CCCN1C(CO)C2c3ccccc3N(C(C)=O)CC21 (racemic) [31b] — what was its hepatocytes human?
A: 32

Q: Sample CCCN1C2CN(C(C)=O)CC1C2c1ccccc1 (stereo not shown) [27b] — what was its hepatocytes human?
A: 104

More entries:
Q: Sample CCCN1C2CN(S(C)(=O)=O)CC1C2c1ccccc1 (stereo not shown) [27c] — what was its hepatocytes human?
A: 72
